# System name: GSPT1 (Homo sapiens, UniProt P15170+Q96SW2)
# Construct: CAL-51 cells were purchased from DSMZ (cat. Number ACC302); endogenous in cells; host or cells: CAL-51 (DSMZ ACC302)
# Sequence (P15170 whole entry): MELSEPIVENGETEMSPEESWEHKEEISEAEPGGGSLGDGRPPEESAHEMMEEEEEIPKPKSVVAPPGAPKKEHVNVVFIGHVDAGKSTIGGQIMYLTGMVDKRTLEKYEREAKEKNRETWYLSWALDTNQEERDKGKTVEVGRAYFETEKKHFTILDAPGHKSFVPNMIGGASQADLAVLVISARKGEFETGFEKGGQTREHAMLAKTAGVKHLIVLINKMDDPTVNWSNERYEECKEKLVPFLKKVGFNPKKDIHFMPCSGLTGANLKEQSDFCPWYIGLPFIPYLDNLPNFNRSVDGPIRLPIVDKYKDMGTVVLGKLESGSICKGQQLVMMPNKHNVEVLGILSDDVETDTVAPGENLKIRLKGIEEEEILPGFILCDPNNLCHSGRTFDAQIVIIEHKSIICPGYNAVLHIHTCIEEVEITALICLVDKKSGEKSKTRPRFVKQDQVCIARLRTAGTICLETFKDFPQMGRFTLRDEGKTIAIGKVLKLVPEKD
# Sequence (Q96SW2 whole entry): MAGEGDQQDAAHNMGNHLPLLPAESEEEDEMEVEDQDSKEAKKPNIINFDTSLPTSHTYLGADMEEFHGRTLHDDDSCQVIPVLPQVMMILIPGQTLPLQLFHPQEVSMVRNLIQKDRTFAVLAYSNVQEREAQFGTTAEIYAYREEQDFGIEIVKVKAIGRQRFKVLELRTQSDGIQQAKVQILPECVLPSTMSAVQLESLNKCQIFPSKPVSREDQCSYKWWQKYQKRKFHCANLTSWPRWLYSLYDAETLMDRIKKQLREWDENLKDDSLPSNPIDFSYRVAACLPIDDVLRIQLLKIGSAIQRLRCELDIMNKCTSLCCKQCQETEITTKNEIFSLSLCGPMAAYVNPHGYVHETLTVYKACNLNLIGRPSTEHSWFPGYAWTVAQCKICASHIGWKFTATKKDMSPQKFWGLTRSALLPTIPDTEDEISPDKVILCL
# Sequence (Q16531 2-1140 partner limits assumed): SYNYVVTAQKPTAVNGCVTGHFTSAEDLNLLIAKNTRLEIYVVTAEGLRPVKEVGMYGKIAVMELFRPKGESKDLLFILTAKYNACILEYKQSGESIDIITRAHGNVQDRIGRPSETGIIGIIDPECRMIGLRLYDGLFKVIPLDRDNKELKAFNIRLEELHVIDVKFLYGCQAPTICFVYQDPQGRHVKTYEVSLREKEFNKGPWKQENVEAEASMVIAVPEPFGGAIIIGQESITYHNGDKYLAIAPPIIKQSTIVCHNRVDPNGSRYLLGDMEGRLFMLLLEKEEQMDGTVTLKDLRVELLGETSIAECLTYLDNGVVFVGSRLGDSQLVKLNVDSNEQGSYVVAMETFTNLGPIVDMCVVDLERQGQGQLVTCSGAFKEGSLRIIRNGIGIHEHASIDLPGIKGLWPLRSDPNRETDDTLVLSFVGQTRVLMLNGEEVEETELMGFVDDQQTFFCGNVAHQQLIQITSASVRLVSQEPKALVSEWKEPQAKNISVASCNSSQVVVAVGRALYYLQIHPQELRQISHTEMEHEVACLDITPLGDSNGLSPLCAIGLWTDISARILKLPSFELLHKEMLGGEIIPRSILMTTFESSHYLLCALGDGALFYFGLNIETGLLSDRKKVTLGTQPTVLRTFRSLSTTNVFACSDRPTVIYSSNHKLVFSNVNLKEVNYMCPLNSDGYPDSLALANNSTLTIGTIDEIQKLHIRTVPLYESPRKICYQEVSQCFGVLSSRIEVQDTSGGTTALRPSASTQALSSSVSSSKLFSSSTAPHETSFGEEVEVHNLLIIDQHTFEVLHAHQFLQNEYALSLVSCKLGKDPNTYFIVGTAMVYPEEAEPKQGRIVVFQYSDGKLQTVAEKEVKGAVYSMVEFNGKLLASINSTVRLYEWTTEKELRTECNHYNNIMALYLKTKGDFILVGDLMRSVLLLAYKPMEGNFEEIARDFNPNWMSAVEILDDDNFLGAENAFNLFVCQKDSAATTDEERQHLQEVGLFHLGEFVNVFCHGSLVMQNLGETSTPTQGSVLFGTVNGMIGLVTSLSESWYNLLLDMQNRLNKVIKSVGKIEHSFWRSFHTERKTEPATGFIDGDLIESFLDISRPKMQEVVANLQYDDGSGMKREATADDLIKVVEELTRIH
# Assay overview: Immunofluorescence assay for GSPT1 degradation in CAL-51 cells
# Type: cell-based
# Condition notes: 6 h treatment, read-out: IF Class (GSPT1 degradation, DC50)
The following compounds are shown together with reported DC50 values.
Readout: DC50

>  <Compound>
O=C1CCC(c2c(F)cc(N3CC(NC(=O)Cc4ncc(Cl)cc4F)C3)cc2F)C(=O)N1 (centres unmarked) [Compound 15]

>  <Readout>
DC50

>  <Experimental value>
> 300 nM

$$$$
>  <Compound>
O=C1CCC(c2c(F)cc(N3CC(NC(=O)Cc4cc(F)cc(OC(F)F)c4)C3)cc2F)C(=O)N1 (centres unmarked) [Compound 26]

>  <Readout>
DC50

>  <Experimental value>
> 300 nM

$$$$
>  <Compound>
Cc1cc(NC(=O)CC2CN(c3cc(F)c(C4CCC(=O)NC4=O)c(F)c3)C2)ccc1Cl (centres unmarked) [Compound 3]

>  <Readout>
DC50

>  <Experimental value>
< 30 nM

$$$$
>  <Compound>
O=C1CCC(c2c(F)cc(N3CC(CC(=O)Nc4cccc(OC(F)(F)F)c4)C3)cc2F)C(=O)N1 (centres unmarked) [Compound 39]

>  <Readout>
DC50

>  <Experimental value>
30 to 300 nM

$$$$
>  <Compound>
Cc1cc(F)cc(CC(=O)NC2CN(c3cc(F)c(C4CCC(=O)NC4=O)c(F)c3)C2)c1 (centres unmarked) [Compound 7]

>  <Readout>
DC50

>  <Experimental value>
> 300 nM

$$$$
>  <Compound>
Cc1cc(CC(=O)NC2CN(c3ccc(C4CCC(=O)NC4=O)c(Cl)c3)C2)ccc1Cl (centres unmarked) [Compound 33]

>  <Readout>
DC50

>  <Experimental value>
30 to 300 nM

$$$$
>  <Compound>
O=C1CCC(c2c(F)cc(N3CC(NC(=O)Cc4cc(F)cc(F)c4)C3)cc2F)C(=O)N1 (centres unmarked) [Compound 8]

>  <Readout>
DC50

>  <Experimental value>
> 300 nM

$$$$
>  <Compound>
O=C1CCC(c2c(F)cc(N3CC(CC(=O)Nc4ccc(F)c(OC(F)F)c4)C3)cc2F)C(=O)N1 (centres unmarked) [Compound 6]

>  <Readout>
DC50

>  <Experimental value>
30 to 300 nM

$$$$

----------
# System name: GSPT1 (Homo sapiens, UniProt P15170+Q96SW2)
# Construct: CAL-51 cells were purchased from DSMZ (cat. Number ACC302); endogenous in cells; host or cells: CAL-51 (DSMZ ACC302)
# Assay overview: Immunofluorescence assay for GSPT1 degradation in CAL-51 cells
# Format: cell-based
# Condition notes: 6 h treatment, read-out: IF Class (GSPT1 degradation, DC50)
Readout: DC50

>  <Molecule>
O=C1CCC(c2c(F)cc(N3CC(NC(=O)Cc4cccc(Cl)c4)C3)cc2F)C(=O)N1 (stereo not shown)

>  <System name>
GSPT1 (Homo sapiens, UniProt P15170+Q96SW2)

>  <Experimental value>
30 to 300 nM

$$$$
>  <Molecule>
O=C1CCC(c2c(F)cc(N3CC(NC(=O)Cc4ccc(Cl)cn4)C3)cc2F)C(=O)N1 (stereo not shown)

>  <System name>
GSPT1 (Homo sapiens, UniProt P15170+Q96SW2)

>  <Experimental value>
> 300 nM

$$$$
>  <Molecule>
O=C1CCC(c2c(F)cc(N3CC(NC(=O)CC4CCC4)C3)cc2F)C(=O)N1 (stereo not shown)

>  <System name>
GSPT1 (Homo sapiens, UniProt P15170+Q96SW2)

>  <Experimental value>
> 300 nM

$$$$
>  <Molecule>
O=C1CCC(c2c(F)cc(N3CC(NC(=O)C45CC(c6ccccc6)(C4)C5)C3)cc2F)C(=O)N1 (stereo not shown)

>  <System name>
GSPT1 (Homo sapiens, UniProt P15170+Q96SW2)

>  <Experimental value>
> 300 nM

$$$$
>  <Molecule>
Cc1ccc(NC(=O)CC2CN(c3cc(F)c(C4CCC(=O)NC4=O)c(F)c3)C2)cc1Cl (stereo not shown)

>  <System name>
GSPT1 (Homo sapiens, UniProt P15170+Q96SW2)

>  <Experimental value>
< 30 nM

$$$$
>  <Molecule>
Cc1cc(C)cc(CC(=O)NC2CN(c3cc(F)c(C4CCC(=O)NC4=O)c(F)c3)C2)c1 (stereo not shown)

>  <System name>
GSPT1 (Homo sapiens, UniProt P15170+Q96SW2)

>  <Experimental value>
< 30 nM

$$$$
>  <Molecule>
N#Cc1ccc(CC(=O)NC2CN(c3cc(F)c(C4CCC(=O)NC4=O)c(F)c3)C2)c(F)c1 (stereo not shown)

>  <System name>
GSPT1 (Homo sapiens, UniProt P15170+Q96SW2)

>  <Experimental value>
> 300 nM

$$$$
>  <Molecule>
N#Cc1ccc(CC(=O)NC2CN(c3cc(F)c(C4CCC(=O)NC4=O)c(F)c3)C2)cc1Cl (stereo not shown)

>  <System name>
GSPT1 (Homo sapiens, UniProt P15170+Q96SW2)

>  <Experimental value>
> 300 nM

$$$$
>  <Molecule>
O=C1CCC(c2c(F)cc(N3CC(NC(=O)Cc4ccc(F)c(F)c4)C3)cc2F)C(=O)N1 (stereo not shown)

>  <System name>
GSPT1 (Homo sapiens, UniProt P15170+Q96SW2)

>  <Experimental value>
> 300 nM

$$$$
>  <Molecule>
O=C1CCC(c2c(F)cc(N3CC(NC(=O)C(F)(F)c4ccc(Cl)cc4)C3)cc2F)C(=O)N1 (stereo not shown)

>  <System name>
GSPT1 (Homo sapiens, UniProt P15170+Q96SW2)

>  <Experimental value>
> 300 nM

$$$$
>  <Molecule>
O=C1CCC(c2c(F)cc(N3CC(NC(=O)Cc4ccc(F)cc4F)C3)cc2F)C(=O)N1 (stereo not shown)

>  <System name>
GSPT1 (Homo sapiens, UniProt P15170+Q96SW2)

>  <Experimental value>
< 30 nM

$$$$
>  <Molecule>
O=C1CCC(c2ccc(N3CC(NC(=O)C(F)(F)c4ccc(Cl)cc4)C3)cc2Cl)C(=O)N1 (stereo not shown)

>  <System name>
GSPT1 (Homo sapiens, UniProt P15170+Q96SW2)

>  <Experimental value>
> 300 nM

$$$$
>  <Molecule>
Cc1cc(CC(=O)NC2CN(c3cc(F)c(C4CCC(=O)NC4=O)c(F)c3)C2)ncc1Cl (stereo not shown)

>  <System name>
GSPT1 (Homo sapiens, UniProt P15170+Q96SW2)

>  <Experimental value>
> 300 nM

$$$$
>  <Molecule>
O=C1CCC(c2c(F)cc(N3CC(NC(=O)Cc4ccc(Cl)c(F)c4)C3)cc2F)C(=O)N1 (stereo not shown)

>  <System name>
GSPT1 (Homo sapiens, UniProt P15170+Q96SW2)

>  <Experimental value>
> 300 nM

$$$$
>  <Molecule>
Cc1c(Cl)cc(CC(=O)NC2CN(c3cc(F)c(C4CCC(=O)NC4=O)c(F)c3)C2)cc1CN1CCOCC1 (stereo not shown)

>  <System name>
GSPT1 (Homo sapiens, UniProt P15170+Q96SW2)

>  <Experimental value>
< 30 nM

$$$$
>  <Molecule>
N#Cc1ccc(CC(=O)NC2CN(c3cc(F)c(C4CCC(=O)NC4=O)c(F)c3)C2)c(Cl)c1 (stereo not shown)

>  <System name>
GSPT1 (Homo sapiens, UniProt P15170+Q96SW2)

>  <Experimental value>
> 300 nM

$$$$
>  <Molecule>
Cc1cc(Cl)ccc1CC(=O)NC1CN(c2cc(F)c(C3CCC(=O)NC3=O)c(F)c2)C1 (stereo not shown)

>  <System name>
GSPT1 (Homo sapiens, UniProt P15170+Q96SW2)

>  <Experimental value>
30 to 300 nM

$$$$
>  <Molecule>
Cc1c(Cl)cc(NC(=O)CC2CN(c3cc(F)c(C4CCC(=O)NC4=O)c(F)c3)C2)cc1CN1CCOCC1 (stereo not shown)

>  <System name>
GSPT1 (Homo sapiens, UniProt P15170+Q96SW2)

>  <Experimental value>
< 30 nM

$$$$
>  <Molecule>
O=C1CCC(c2c(F)cc(N3CC(NC(=O)Cc4cccc(OC(F)(F)F)c4)C3)cc2F)C(=O)N1 (stereo not shown)

>  <System name>
GSPT1 (Homo sapiens, UniProt P15170+Q96SW2)

>  <Experimental value>
30 to 300 nM

$$$$
>  <Molecule>
O=C1CCC(c2c(F)cc(N3CC(CC(=O)Nc4cc(OC(F)(F)F)ccc4F)C3)cc2F)C(=O)N1 (stereo not shown)

>  <System name>
GSPT1 (Homo sapiens, UniProt P15170+Q96SW2)

>  <Experimental value>
< 30 nM

$$$$
>  <Molecule>
O=C1CCC(c2c(F)cc(N3CC(NC(=O)Cc4ccc(Cl)cc4F)C3)cc2F)C(=O)N1 (stereo not shown)

>  <System name>
GSPT1 (Homo sapiens, UniProt P15170+Q96SW2)

>  <Experimental value>
30 to 300 nM

$$$$
>  <Molecule>
O=C1CCC(c2c(F)cc(N3CC(CC(=O)Nc4cc(F)cc(OC(F)F)c4)C3)cc2F)C(=O)N1 (stereo not shown)

>  <System name>
GSPT1 (Homo sapiens, UniProt P15170+Q96SW2)

>  <Experimental value>
> 300 nM

$$$$
>  <Molecule>
O=C1CCC(c2c(F)cc(N3CC(NC(=O)Cc4cc(Cl)c(F)cc4F)C3)cc2F)C(=O)N1 (stereo not shown)

>  <System name>
GSPT1 (Homo sapiens, UniProt P15170+Q96SW2)

>  <Experimental value>
< 30 nM

$$$$
>  <Molecule>
Cc1nc(CC(=O)NC2CN(c3cc(F)c(C4CCC(=O)NC4=O)c(F)c3)C2)ccc1Cl (stereo not shown)

>  <System name>
GSPT1 (Homo sapiens, UniProt P15170+Q96SW2)

>  <Experimental value>
> 300 nM

$$$$
>  <Molecule>
O=C1CCC(c2c(F)cc(N3CC(NC(=O)Cc4cc(Cl)ccc4F)C3)cc2F)C(=O)N1 (stereo not shown)

>  <System name>
GSPT1 (Homo sapiens, UniProt P15170+Q96SW2)

>  <Experimental value>
30 to 300 nM

$$$$
>  <Molecule>
O=C1CCC(c2c(F)cc(N3CC(NC(=O)Cc4ccc(F)c(Cl)c4)C3)cc2F)C(=O)N1 (stereo not shown)

>  <System name>
GSPT1 (Homo sapiens, UniProt P15170+Q96SW2)

>  <Experimental value>
> 300 nM

$$$$
>  <Molecule>
N#Cc1cc(Cl)cc(CC(=O)NC2CN(c3cc(F)c(C4CCC(=O)NC4=O)c(F)c3)C2)c1 (stereo not shown)

>  <System name>
GSPT1 (Homo sapiens, UniProt P15170+Q96SW2)

>  <Experimental value>
30 to 300 nM

$$$$
>  <Molecule>
O=C1CCC(c2c(F)cc(N3CC(NC(=O)Cc4c(F)cc(Cl)cc4F)C3)cc2F)C(=O)N1 (stereo not shown)

>  <System name>
GSPT1 (Homo sapiens, UniProt P15170+Q96SW2)

>  <Experimental value>
30 to 300 nM

$$$$
>  <Molecule>
O=C1CCC(c2c(F)cc(N3CC(NC(=O)Cc4ccc5c(c4)OCC5)C3)cc2F)C(=O)N1 (stereo not shown)

>  <System name>
GSPT1 (Homo sapiens, UniProt P15170+Q96SW2)

>  <Experimental value>
> 300 nM

$$$$
>  <Molecule>
Cc1cc(CC(=O)NC2CN(c3cc(F)c(C4CCC(=O)NC4=O)c(F)c3)C2)cc(C)n1 (stereo not shown)

>  <System name>
GSPT1 (Homo sapiens, UniProt P15170+Q96SW2)

>  <Experimental value>
> 300 nM

$$$$
>  <Molecule>
Cc1cc(C)cc(C(F)(F)C(=O)NC2CN(c3cc(F)c(C4CCC(=O)NC4=O)c(F)c3)C2)c1 (stereo not shown)

>  <System name>
GSPT1 (Homo sapiens, UniProt P15170+Q96SW2)

>  <Experimental value>
> 300 nM

$$$$
